The reader will find reported pIC50 values listed item by item below.
targetSystem: T1, rat pituitary GnRH receptor (rat, UniProt P30969 1-327)
T1 construct: whole, on cells; Native receptor; also called GnRH receptors; rat pituitary receptors
T1 sequence (looked up): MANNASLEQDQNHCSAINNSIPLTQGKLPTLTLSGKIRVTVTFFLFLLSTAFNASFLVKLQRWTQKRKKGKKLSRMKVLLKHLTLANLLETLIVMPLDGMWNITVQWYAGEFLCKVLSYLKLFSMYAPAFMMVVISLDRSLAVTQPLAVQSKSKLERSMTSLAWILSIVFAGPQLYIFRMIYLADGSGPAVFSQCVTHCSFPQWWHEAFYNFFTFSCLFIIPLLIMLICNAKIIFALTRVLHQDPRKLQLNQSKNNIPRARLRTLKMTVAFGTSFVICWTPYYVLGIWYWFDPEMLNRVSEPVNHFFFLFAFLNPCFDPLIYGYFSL
procedureSummary: displacement of 125I[D-Lys6]GnRH from rat pituitary membranes
pIC50: −log10 of the molar value. Square brackets hold non-standard residues; d marks the D form. * marks the point of attachment. NQ = N-(2-chloro-1,4-naphthoquinonyl)-β-alanine, O=C1C(Cl)=C(NCCC(=O)*)C(=O)c2ccccc21; Glutaryl(OAqm) = O=C(CCCC(=O)*)OCc1ccc2c(c1)C(=O)c1ccccc1C2=O; pGlu = O=C1CC[C@@H](C(=O)O)N1; Emo = not defined here
observationType: pIC50

{"binder": "[pGlu]HWSY[dK](Glutaryl(OAqm))LRPG-NH2 (Quinone conjugate of [D-Lys6]GnRH; also called [D-Lys^6(AntrQ)]GnRH; [D-Lys^6(AntQ)]GnRH) [[D-Lys^6(2-hydroxymethyl-anthraquinone hemiglutarate)]GnRH]", "observationType": "pIC50", "numericValue": 10.70}
{"binder": "[pGlu]HWSY[dK](Emo)LRPG-NH2 (not fully specified; printed as [D-Lys^6(1,3,8-trihydroxy-6-carboxy-anthraquinone)]GnRH; reading uncertain, Emodic acid conjugate of [D-Lys6]GnRH, an agonist; also called [D-Lys^6(Emo)]GnRH; [D-(Emo)]GnRH) [[D-Lys^6(1,3,8-trihydroxy-6-carboxy-anthraquinone)]GnRH]", "observationType": "pIC50", "numericValue": 9.60}
{"binder": "[pGlu]HWSY[dK](NQ)LRPG-NH2 (Quinone conjugate of [D-Lys6]GnRH; also called [D-Lys^6(NQ)]GnRH) [[D-Lys^6(N-(2-chloro-1,4-naphthoquinonyl)-β-alanyl)]GnRH]", "observationType": "pIC50", "numericValue": 10.05}
